- System: barnyardgrass (Echinochloa crus-galli)
- experiment: Test A postemergence
- Assay type: in vivo
- conditionDescription: Echinochloa crus-galli, post-emergence, 240 h, 125 g ai/ha, postemergence; visual injury on 0 to 100 scale (0 no effect, 100 complete control), approx. 10 d; read-out: Barnyardgrass plant response rating
Below, each of the compounds is paired with its reported pest or weed control at 125 g/ha value.

compound	pest or weed control at 125 g/ha, %
CN1C[C@H](c2cc(C(F)F)cs2)[C@@H](C(=O)Nc2ccccc2S(C)(=O)=O)C1=O [Compound 1084]	60
O=C1NC[C@H](c2cc(C(F)F)cs2)[C@H]1C(=O)Nc1cccc(F)c1F [Compound 1117]	80
Cc1cc([C@H]2CNC(=O)[C@@H]2C(=O)Nc2ccccc2S(C)(=O)=O)ccc1C(F)(F)F [Compound 1041]	0
CC(C)Oc1ccc([C@H]2CNC(=O)[C@@H]2C(=O)Nc2cccc(F)c2F)cc1 [Compound 1136]	30
CN1C[C@H](c2cc(C(F)F)cs2)[C@@H](C(=O)Nc2cccc(F)c2C#N)C1=O [Compound 1092]	90
CN1C[C@H](c2cc(C(F)F)cs2)[C@@H](C(=O)Nc2cccc(C#N)c2F)C1=O [Compound 1093]	80
CC(C)Oc1ccc([C@H]2CNC(=O)[C@@H]2C(=O)Nc2ccc(F)cc2F)cc1 [Compound 1137]	0
CN1CC(c2cccc(/C=C/Cl)c2)C(C(=O)Nc2ccccc2F)C1=O (stereo not drawn) [Compound 1129]	40
C=C(C)c1ccc([C@H]2CN(C)C(=O)[C@@H]2C(=O)Nc2cccc(F)c2C)cc1 [Compound 1150]	40

###

- System: barnyardgrass (Echinochloa crus-galli)
- experiment: Test A preemergence
- Assay type: in vivo
- conditionDescription: Echinochloa crus-galli, pre-emergence, 240 h, 500 g ai/ha, Preemergence, visual injury vs untreated controls after approximately 10 d; read-out: Barnyardgrass plant response rating (0 to 100 scale where 0 is no effect and 100 is complete control)
pest or weed control at 500 g/ha of 90% or higher: True. Under 90%: False.

inputSmiles	assignedCategory
CON1CC[C@H](c2ccc(F)cc2)[C@@H](C(=O)Nc2cccc(F)c2F)C1=O	False
CN1C[C@H](c2cc(F)cc(F)c2)[C@@H](C(=O)Nc2ncccc2F)C1=O	False
CN1C[C@H](c2cc(F)c(F)c(F)c2)[C@@H](C(=O)Nc2ccccc2F)C1=O	True
CSc1ccccc1NC(=O)[C@H]1C(=O)NC[C@@H]1c1cccc2c1OC(F)(F)O2	False
CCOc1ccc([C@H]2CNC(=O)[C@@H]2C(=O)Nc2ccc(F)cc2F)cc1	False

###

Below, each of the molecules is paired with its reported pest or weed control at 15.625 g/ha value.
- Tested on: redroot pigweed (Amaranthus retroflexus)
- experiment: Test G Post-Emergence Protocol
- Format: in vivo
- conditionDescription: Amaranthus retroflexus, post-emergence, 312 h, 15.625 g ai/ha, evaluated after 13 days (100=total damage to plant; 0=no damage to plant), read-out: Pigweed, Redroot damage rating
- Excerpt: Seeds of corn (Zea mays), giant foxtail (Setaria faberi), barnyardgrass (Echinochloa crus-galli), ivy-leaved morning glory (Ipomoea hederacea), redroot pigweed (Amaranthus retroflexus) and velvetleaf (Abutilon theophrasti) were sown in standard soil in pots. […]
metricName: pest or weed control at 15.625 g/ha

molecule	valueReported
CCOC(=O)c1cccc([C@H]2CN(C)C(=O)[C@@H]2C(=O)Nc2ccccc2F)c1 (racemic)	0%
Cc1nc(C(F)(F)F)ccc1NC(=O)[C@@H]1C(=O)N(C)C[C@H]1c1ccc(C(F)(F)F)cc1 (racemic)	0%
CN1C[C@@H](c2ccc(C(F)(F)F)cc2)[C@H](C(=O)Nc2cncc(F)n2)C1=O (racemic)	0%
Cc1cc([C@@H]2CN(C)C(=O)[C@H]2C(=O)Nc2cccc(F)c2F)cnc1Cl (racemic)	0%
CN1C[C@@H](c2ccc(C(F)(F)F)cc2)[C@H](C(=O)Nc2cccc3cn[nH]c23)C1=O (racemic)	0%
Cc1c[nH]nc1NC(=O)[C@@H]1C(=O)N(C)C[C@H]1c1ccc(C(F)(F)F)cc1 (racemic)	0%
Cc1cc(C)cc([C@H]2CN(C)C(=O)[C@@H]2C(=O)Nc2ccccc2S(C)(=O)=O)c1 (racemic)	0%
CN1C[C@H](c2ccc(C(F)(F)F)cc2)[C@@H](C(=O)Nc2ccc(Cl)cc2[N+](=O)[O-])C1=O (racemic)	0%
CN1C[C@H](c2ccc(C(F)(F)F)cc2)[C@@H](C(=O)Nc2ncc(Cl)cc2Cl)C1=O (racemic)	0%
Cc1c(F)cccc1NC(=O)[C@@H]1C(=O)N(C)C[C@H]1c1cccc(OCC(F)(F)F)c1 (racemic)	0%
CN1C[C@H](c2ccc(C(F)(F)F)cc2)[C@@H](C(=O)Nc2cccc3c2S(=O)(=O)CC3)C1=O (racemic)	0%
CN1C[C@H](c2ccc(C(F)(F)F)cc2)[C@@H](C(=O)Nc2cnccc2F)C1=O (racemic)	0%
CN1C[C@@H](c2ccc(C(F)(F)F)cc2)[C@H](C(=O)Nc2cnc(Cl)cn2)C1=O (racemic)	0%
CN1C[C@@H](c2ccc(C(F)(F)F)cc2)[C@H](C(=O)Nc2cc(C(F)(F)F)n(C)n2)C1=O (racemic)	0%
COc1cc(C2CN(C)C(=O)C2C(=O)Nc2cccc(F)c2F)cc(Cl)c1OC (stereo not shown)	0%
CON1C[C@@H](c2cccc(C(F)(F)F)c2)[C@H](C(=O)Nc2cccc(F)c2F)C1=O (racemic)	0%
CN1C[C@@H](c2ccnc(C(F)(F)F)c2)[C@H](C(=O)Nc2cccc(F)c2F)C1=O (racemic)	0%
CCOc1cc([C@@H]2CN(C)C(=O)[C@H]2C(=O)Nc2cccc(F)c2F)cc(C(F)(F)F)n1 (racemic)	0%
CCOc1cc([C@@H]2CN(C)C(=O)[C@H]2C(=O)Nc2cccc(F)c2C)ccc1C(F)(F)F (racemic)	20%
CN1C[C@@H](c2ccc(C(F)(F)F)cc2)[C@H](C(=O)Nc2ccncc2Cl)C1=O (racemic)	0%
CN1C[C@@H](c2ccc(C(F)(F)F)cc2)[C@@](O)(C(=O)Nc2cccc(F)c2F)C1=O (racemic)	10%
CN1C[C@H](c2ccc(C(F)(F)F)cc2)[C@@H](C(=O)Nc2ccccc2S(C)(=O)=O)C1=O (racemic)	30%
Cc1cccc(NC(=O)[C@@H]2C(=O)N(C)C[C@H]2c2ccc(C(F)(F)F)cc2)c1[N+](=O)[O-] (racemic)	0%
CN1C[C@@H](c2ccc(C(F)(F)F)cc2)[C@H](C(=O)Nc2ccc(F)cc2C(F)(F)F)C1=O (racemic)	20%
Cc1cccnc1NC(=O)C1C(=O)N(C)CC1c1ccc(C(F)(F)F)cc1 (stereo not shown)	0%
CN1C[C@H](c2ccc(C(F)(F)F)cc2)[C@@H](C(=O)Nc2cccc(Cl)c2S(C)(=O)=O)C1=O (racemic)	0%
CN1C[C@@H](c2ccc(C(F)(F)F)cc2)[C@H](C(=O)Nc2cc(C(F)(F)F)[nH]n2)C1=O (racemic)	0%
COc1c(F)cc(C2CN(C)C(=O)C2C(=O)Nc2cccc(F)c2F)cc1Cl (stereo not shown)	20%

These data points were gathered from patent US12077503B2.
